The reported numbers originate from the supplement of paper PMC11061612.

Tested on: SW837 (Colorectal Carcinoma)
Measurement notes: Bliss excess, mean over the matrix (fraction); higher = more synergy
Observation type: Bliss excess

// known answers, use as guide
Compound	Bliss excess
NC1(C(=O)N[C@@H](CCO)c2ccc(Cl)cc2)CCN(c2ncnc3[nH]ccc23)CC1 [Capivasertib] + CC(=O)c1c(C)c2cnc(Nc3ccc(N4CCNCC4)cn3)nc2n(C2CCCC2)c1=O [Palbociclib] (first compound max 10 µM, 7x7, partner max 10 µM)	-0.0531
NC1(C(=O)N[C@@H](CCO)c2ccc(Cl)cc2)CCN(c2ncnc3[nH]ccc23)CC1 [Capivasertib] + CCN(CCO)CCCOc1ccc2c(Nc3cc(CC(=O)Nc4cccc(F)c4)[nH]n3)ncnc2c1 [AZD2811] (first compound max 10 µM, 7x7, partner max 1 µM)	-0.0646
Cc1c2c(nn1C)CSCc1cc(n(C)n1)CSc1cc(c3ccccc3c1)OCCCc1c(C(=O)O)n(C)c3c-2c(Cl)ccc13 [AZD5991] + CC(=O)O[C@H]1C(=O)[C@@]2(C)[C@H]([C@H](OC(=O)c3ccccc3)[C@]3(O)C[C@H](OC(=O)[C@H](O)[C@@H](NC(=O)c4ccccc4)c4ccccc4)C(C)=C1C3(C)C)[C@]1(OC(C)=O)CO[C@@H]1C[C@@H]2O [Paclitaxel] (first compound max 1 µM, 7x7, partner max 3 µM)	-0.0327
COc1nnc2ccc(N3CCC(c4ccc(OCCN5CCN(C)C(=O)[C@H]5C)cc4)CC3)nn12 [AZD5153] + CC1(C)CCC(CN2CCN(c3ccc(C(=O)NS(=O)(=O)c4ccc(NCC5CCOCC5)c([N+](=O)[O-])c4)c(Oc4cnc5[nH]ccc5c4)c3)CC2)=C(c2ccc(Cl)cc2)C1 [Venetoclax] (first compound max 1 µM, 7x7, partner max 1 µM)	-0.0514
COc1cc2c(cc1OCCCCCOc1cc3c(cc1OC)C(=O)N1C=C(C)C[C@H]1C=N3)N=C[C@@H]1CC(C)=CN1C2=O [SG3199] + O=C(c1cc(Cc2n[nH]c(=O)c3ccccc23)ccc1F)N1CCN(C(=O)C2CC2)CC1 [Olaparib] (first compound max 0.001 µM, 7x7, partner max 10 µM)	-0.0384

Next:
Simply: Cn1cnc2c(F)c(Nc3ccc(Br)cc3Cl)c(C(=O)NOCCO)cc21 [Selumetinib] + CCN(CCO)CCCOc1ccc2c(Nc3cc(CC(=O)Nc4cccc(F)c4)[nH]n3)ncnc2c1 [AZD2811] (first compound max 10 µM, 7x7, partner max 1 µM) , SW837 (Colorectal Carcinoma), Bliss excess = -0.0311

====

Test system: MEL-JUSO (Melanoma)
Measurement notes: Bliss excess, mean over the matrix (fraction); higher = more synergy
Observation type: Bliss excess
Note: the reply should be a number with no unit written.

Compound	Measurement target	Value observed
CC1(C)CCC(CN2CCN(c3ccc(C(=O)NS(=O)(=O)c4ccc(NCC5CCOCC5)c([N+](=O)[O-])c4)c(Oc4cnc5[nH]ccc5c4)c3)CC2)=C(c2ccc(Cl)cc2)C1 [Venetoclax] + C[C@@H](Nc1cc(F)cc(F)c1)c1cc(C(=O)N(C)C)cc2c(=O)cc(N3CCOCC3)oc12 [AZD8186] (first compound max 1 µM, 7x7, partner max 3 µM)	MEL-JUSO (Melanoma)	-0.0487

For reference, reported Bliss excess for CCN(CCO)CCCOc1ccc2c(Nc3cc(CC(=O)Nc4cccc(F)c4)[nH]n3)ncnc2c1 [AZD2811] + C=CCn1c(=O)c2cnc(Nc3ccc(N4CCN(C)CC4)cc3)nc2n1-c1cccc(C(C)(C)O)n1 [AZD1775] (first compound max 1 µM, partner max 1 µM) stands at 0.0131

For reference, reported Bliss excess for CC1(C)CCC(CN2CCN(c3ccc(C(=O)NS(=O)(=O)c4ccc(NCC5CCOCC5)c([N+](=O)[O-])c4)c(Oc4cnc5[nH]ccc5c4)c3)CC2)=C(c2ccc(Cl)cc2)C1 [Venetoclax] + COc1cc(Nc2ncc3c(n2)-c2ccc(Cl)cc2C(c2c(F)cccc2OC)=NC3)ccc1C(=O)O [Alisertib] (first compound max 1 µM, 7x7, partner max 10 µM) stands at -0.0463

For reference, reported Bliss excess for Cc1c2c(nn1C)CSCc1cc(n(C)n1)CSc1cc(c3ccccc3c1)OCCCc1c(C(=O)O)n(C)c3c-2c(Cl)ccc13 [AZD5991] + Cn1cnc2c(F)c(Nc3ccc(Br)cc3Cl)c(C(=O)NOCCO)cc21 [Selumetinib] (first compound max 1 µM, 7x7, partner max 3 µM) stands at 0.0046

For reference, reported Bliss excess for COc1cccc(OCCCN)c1-c1cc(Nc2cnc(C#N)cn2)n[nH]1 [Prexasertib] + C=CCn1c(=O)c2cnc(Nc3ccc(N4CCN(C)CC4)cc3)nc2n1-c1cccc(C(C)(C)O)n1 [AZD1775] (first compound max 1 µM, partner max 1 µM) stands at 0.0303

For reference, reported Bliss excess for CCN(CCO)CCCOc1ccc2c(Nc3cc(CC(=O)Nc4cccc(F)c4)[nH]n3)ncnc2c1 [AZD2811] + O=C(c1cc(Cc2n[nH]c(=O)c3ccccc23)ccc1F)N1CCN(C(=O)C2CC2)CC1 [Olaparib] (first compound max 1 µM, 7x7, partner max 10 µM) stands at -0.0015

For reference, reported Bliss excess for COc1cccc2c1C(=O)c1c(O)c3c(c(O)c1C2=O)C[C@@](O)(C(=O)CO)C[C@@H]3O[C@H]1C[C@H](N)[C@H](O)[C@H](C)O1 [Doxorubicin] + Cc1cc2ncnn2cc1Nc1ncc2c(n1)n(C1CCOCC1)c(=O)n2C [AZD7648] (first compound max 1 µM, 7x7, partner max 10 µM) stands at 0.0309

====

Overview of reported Bliss excess across a group of compounds:
Tested on: SU-DHL-8 (B-Cell Non-Hodgkin's Lymphoma)
Measurement notes: Bliss excess, mean over the matrix (fraction); higher = more synergy

// known answers, use as guide
Compound	Bliss excess
COc1cccc(OCCCN)c1-c1cc(Nc2cnc(C#N)cn2)n[nH]1 [Prexasertib] + O=C(c1cc(Cc2n[nH]c(=O)c3ccccc23)ccc1F)N1CCN(C(=O)C2CC2)CC1 [Olaparib] (first compound max 1 µM, 7x7, partner max 10 µM)	-0.0668
CN(CCO)CC[C@H](CSc1ccccc1)Nc1ccc(S(=O)(=O)NC(=O)c2ccc(N3CCC([C@@H](O)c4ccccc4-c4ccc(Cl)cc4)CC3)cc2)cc1S(=O)(=O)C(F)(F)F [AZD4320] + CCN(CCO)CCCOc1ccc2c(Nc3cc(CC(=O)Nc4cccc(F)c4)[nH]n3)ncnc2c1 [AZD2811] (first compound max 1 µM, 7x7, partner max 1 µM)	-0.013

Next:
Simply: Cc1c2c(nn1C)CSCc1cc(n(C)n1)CSc1cc(c3ccccc3c1)OCCCc1c(C(=O)O)n(C)c3c-2c(Cl)ccc13 [AZD5991] + C[C@@H](Nc1cc(F)cc(F)c1)c1cc(C(=O)N(C)C)cc2c(=O)cc(N3CCOCC3)oc12 [AZD8186] (first compound max 1 µM, 7x7, partner max 3 µM) , SU-DHL-8 (B-Cell Non-Hodgkin's Lymphoma), Bliss excess = -0.0961

====

Test system: EVSA-T (Breast Carcinoma)
Measurement notes: combination Emax (second highest fraction inhibited in the dose matrix, 72 h); higher = more inhibition; extreme values may be limits of the assay
Would you mind labelling by combination Emax? At or over 0.4 is Condition met, under is Condition not met.

Worked examples, 6 compounds total:
Compound	Category label
CN(CCO)CC[C@H](CSc1ccccc1)Nc1ccc(S(=O)(=O)NC(=O)c2ccc(N3CCC([C@@H](O)c4ccccc4-c4ccc(Cl)cc4)CC3)cc2)cc1S(=O)(=O)C(F)(F)F [AZD4320] + C1CN(CCC1(C(=O)N[C@@H](CCO)C2=CC=C(C=C2)Cl)N)C3=NC=NC4=C3C=CN4 [Capivasertib] (first compound max 1 µM, 7x7, partner max 3 µM)	Condition met
CN(C)CCCOc1ccc(-c2ccc3ncc4c(c3c2)n(C2CCOCC2)c(=O)n4C)cn1 [AZD0156] + CCN(CCO)CCCOc1ccc2c(Nc3cc(CC(=O)Nc4cccc(F)c4)[nH]n3)ncnc2c1 [AZD2811] (first compound max 1 µM, 7x7, partner max 1 µM)	Condition not met
Cn1cnc2c(F)c(Nc3ccc(Br)cc3Cl)c(C(=O)NOCCO)cc21 [Selumetinib] + CC(C)n1c(=O)n(C)c2cnc3cc(F)c(-c4ccc(OCCCN5CCCCC5)nc4)cc3c21 [AZD1390] (first compound max 10 µM, 7x7, partner max 0.3 µM)	Condition not met
COc1nnc2ccc(N3CCC(c4ccc(OCCN5CCN(C)C(=O)[C@H]5C)cc4)CC3)nn12 [AZD5153] + C=CCn1c(=O)c2cnc(Nc3ccc(N4CCN(C)CC4)cc3)nc2n1-c1cccc(C(C)(C)O)n1 [AZD1775] (first compound max 1 µM, partner max 1 µM)	Condition met
Cc1c2c(nn1C)CSCc1cc(n(C)n1)CSc1cc(c3ccccc3c1)OCCCc1c(C(=O)O)n(C)c3c-2c(Cl)ccc13 [AZD5991] + CC1(C)CCC(CN2CCN(c3ccc(C(=O)NS(=O)(=O)c4ccc(NCC5CCOCC5)c([N+](=O)[O-])c4)c(Oc4cnc5[nH]ccc5c4)c3)CC2)=C(c2ccc(Cl)cc2)C1 [Venetoclax] (first compound max 1 µM, 7x7, partner max 1 µM)	Condition met
Cc1nc(Nc2ncc(C(=O)Nc3c(C)cccc3Cl)s2)cc(N2CCN(CCO)CC2)n1 [Dasatinib] + CC(=O)Nc1cccc(-n2c(=O)n(C3CC3)c(=O)c3c(Nc4ccc(I)cc4F)n(C)c(=O)c(C)c32)c1 [Trametinib] (first compound max 2 µM, 7x7, partner max 1 µM)	Condition not met

Now examine the next entry.
Ask | Does the reported combination Emax for COc1cccc(OCCCN)c1-c1cc(Nc2cnc(C#N)cn2)n[nH]1 [Prexasertib] + Cc1cc2ncnn2cc1Nc1ncc2c(n1)n(C1CCOCC1)c(=O)n2C [AZD7648] (first compound max 1 µM, 7x7, partner max 10 µM) fall at or above the 0.4 mark?
Reply | Condition not met
